Cited source for all entries: PubChem BioAssay AID504834

- assay-info: Primary qHTS for delayed death inhibitors of the malarial parasite plastid, 96 hour incubation
- conditions-used: P. falciparum luciferase reporter growth; series mostly up to 28.7 µM
Out of some 320,000 compounds screened, about 22,000 (6.9%) were called active. Another 27% or so got no clear call; they are omitted. The call rests on the fitted dose curve; in most records, active means well fitted inhibition curve with a large enough effect; inconclusive means small, poorly fitted or top-dose-only effect, or another doubt; inactive means no such curve, though single readings can be large or run the other way. The full list was thinned out, with actives kept by preference.
Permitted responses: YES = active, NO = inactive

As a guide, the following entries are already answered.
CC(C)(O)c1ccccc1CC[C@H](SCC1(CC(=O)O)CC1)c1cccc(/C=C/c2ccc3ccc(Cl)cc3n2)c1 : NO
Nc1c(N(CCCO)C(=O)C2CCCC2)c(=O)[nH]c(=O)n1Cc1ccccc1 : NO
Cc1cc(C)nc(NS(=O)(=O)c2ccc(N3C(=O)C4CCCCC4C3=O)cc2)n1 (stereo not given) : NO
CN(CC(=O)NCc1ccc2c(c1)OCO2)CC(=O)Nc1ccc(F)c(F)c1F : NO
CCN(CC)CCNC(=O)c1ccc(NC(=O)c2cc(-c3ccncc3)nc3ccccc23)cc1 : YES

Q. Please state the recorded outcome for this compound: Cc1ccc2nc(-c3ccncc3)cc(C(=O)Nc3ccc4c(c3)OCCO4)c2c1
A. NO

Q. Please state the recorded outcome for this compound: COc1ccccc1CN(C)C(=O)C1(c2ccc(Cl)cc2)CC1
A. YES

Q. Please state the recorded outcome for this compound: COC(=O)CNC(=O)c1cc(-c2ccncc2)nc2ccccc12
A. NO

Q. Please state the recorded outcome for this compound: COc1ccccc1CN(C)C(=O)c1cc2ccccc2o1
A. NO

Q. Please state the recorded outcome for this compound: COc1ccc(NC(=O)COC(=O)c2n[nH]c3ccccc23)c(OC)c1
A. NO

====

- assay-info: Primary qHTS for delayed death inhibitors of the malarial parasite plastid, 96 hour incubation
- conditions-used: P. falciparum luciferase reporter growth; series mostly up to 28.7 µM
The whole screen tested about 320,000 compounds, of which about 22,000 (6.9%) were called active. Not shown: some 27% with an inconclusive outcome. Calls follow the shape of the dose curve; as a rule, active = well fitted inhibition curve with a large enough effect; inconclusive = small, poorly fitted or top-dose-only effect, or another doubt; inactive = no such curve, though single readings can be large or run the other way. The list comes from a sample in which actives are over-represented; it also holds close analogues and randomly drawn compounds.
Permitted responses: 1 for active, 0 for inactive

As a guide, the following entries are already answered.
O=C(Nc1cccc(Cl)c1N1CCOCC1)c1cccnc1 : 1
Oc1ccccc1C1=NN(c2ccccc2)C(c2ccccc2)C1 (stereo unspecified) : 1
CCc1nc(Nc2ccc(NC(C)=O)cc2)c2oc3ccccc3c2n1 : 0
Cc1ccc(NC(=O)Nc2cc(-c3ccccc3)nn2C)cc1Cl : 0
C=CC[n+]1c(-c2ccc(C)cc2)csc1NNC(=O)Nc1ccccc1 : 1
c1ccc(-c2cc3c(NCC4COc5ccccc5O4)ncnc3s2)cc1 (stereo unspecified) : 1
COc1ccc(Nc2ncnc3sc(-c4ccccc4)cc23)c(OC)c1 : 0
Cc1cccc(C)c1NC(=O)N1CC(C)OC(C)C1 (stereo unspecified) : 0
Fc1ccc(-c2ccc(NCCN3CCOCC3)nn2)cc1 : 0
Cc1ccc(OCC(=O)Nc2ccccc2C(=O)NC2CC2)cc1C : 0

Q. Please state the recorded outcome for this compound: COc1ccccc1N1CCN(S(=O)(=O)c2ccc3c(c2)NC(=O)CS3)CC1
A. 1

Q. Please state the recorded outcome for this compound: O=C(NC1CCCC1)C(=O)c1c[nH]c2ccccc12
A. 0

Q. Please state the recorded outcome for this compound: O=C(COC(=O)c1cc(S(=O)(=O)N2CCOCC2)ccc1Cl)NCCc1ccccc1
A. 0

Q. Please state the recorded outcome for this compound: CCCC1C(=O)N2C(N(C)C)=Nc3ccc(C)cc3N2C1=O (stereo unspecified)
A. 0

Q. Please state the recorded outcome for this compound: COc1ccc(C2CC(c3cccs3)=NN2c2ccccc2)cc1 (stereo unspecified)
A. 0

Q. Please state the recorded outcome for this compound: CC1CCN(S(=O)(=O)c2ccc(NC(=O)C3CC(=O)N(c4ccccc4)C3)cc2)CC1 (stereo unspecified)
A. 0

Q. Please state the recorded outcome for this compound: CC(=O)Oc1ccccc1C1=NN(C(C)=O)C(c2ccccc2)C1 (stereo unspecified)
A. 0

Q. Please state the recorded outcome for this compound: COCCCNc1nc2c(-c3cccc(C)c3)nnn2c2ccc(Cl)cc12
A. 0

Q. Please state the recorded outcome for this compound: COc1cccc(COC(=O)C2CCN(S(=O)(=O)c3cccs3)CC2)c1OC
A. 0

Q. Please state the recorded outcome for this compound: Cc1cccc(S(=O)(=O)CC(=O)Nc2nc(-c3ccccc3)cs2)c1
A. 0

Q. Please state the recorded outcome for this compound: CCc1ccccc1NC(=O)Cc1cn(C)c2ccccc12
A. 1

Q. Please state the recorded outcome for this compound: N/C(=N\OC(=O)N1c2ccccc2Sc2ccccc21)c1ccc(Br)cc1
A. 1

Q. Please state the recorded outcome for this compound: Cc1ccc(Nc2ncnc3c2cnn3C)c(C)c1
A. 0

Q. Please state the recorded outcome for this compound: Cc1cc(C)cc(NC(=O)c2cccc(NC(=O)C3C4CC5OC(=O)C3C5C4)c2)c1 (stereo unspecified)
A. 1
